Cited source for all entries: PubChem BioAssay

Recorded viability for the following compounds
experiment: Her2 expression decrease, cell viability multiplex – SKBR3 breast tumor cells, AlphaScreen, ATP viability, primary screen (AID 461); conditions: SKBR3 Her2 protein level, 18-24 h, measured here: SKBR3 viability, ATP luminescence, at 10 µM;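 further: percent of carrier control wells set as 100% viability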
Entry rule: numbers only, all in %.

Consider the following illustrative entries.
compound	unit-abbreviation	readout-number
C=C(C)c1cccc(C(C)(C)NC(=O)NCC2CCCO2)c1 (stereo unspecified)	%	94
CCCc1cc(C(=O)Nc2sc3c(c2C#N)CCC3)no1	%	86.5
Cc1ccc(C2CC(c3ccc(C)cc3)n3nc(N)nc3N2)cc1 (stereo unspecified)	%	95
CCOc1ccc(N2CC(C(=O)Nc3ccccc3OC)CC2=O)cc1 (stereo unspecified)	%	106

GET /value?item= `COCCN(CCOC)Cc1c(C)[nH]c2ccccc2c1=O` &field=viability returns 96.5

// sample Cc1nc2ccccn2c1/C(O)=C1\C(=O)C(=O)N(CCCN(C)C)C1c1ccc(F)cc1 (stereo unspecified) , its viability was 89

----------
assay: Her2 expression decrease, cell viability multiplex – SKBR3 breast tumor cells, AlphaScreen, ATP viability, primary screen (AID 461); conditions: SKBR3 Her2 protein level, 18-24 h, measured here: SKBR3 viability, ATP luminescence, at 10 µM;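 further: percent of carrier control wells set as 100% viability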
Label Y when viability is strictly below 90%; otherwise label N.

Recorded results for 4 compounds are shown here.
compound	group
Cn1c(NC(=O)c2ccccc2NC(=O)C(C)(C)C)nc2ccccc21	N
CS(=O)(=O)N(Cc1ccco1)CC(O)Cn1c2ccccc2c2ccccc21 (stereo unspecified)	N
CCCCSc1nc2c(cnn2-c2ccc(F)cc2)c(=O)[nH]1	N
CCCCOC(=O)Nc1nc2ccc(OC)cc2s1	N

Enquiry: For `Cc1cc2ncc(-c3ccc(Cl)cc3)c(N)n2n1` , is the recorded viability below the cut-off of 90%?
Return: Y

----------
assay: RAM signaling pathway blockade in yeast – S. cerevisiae, Pdr1DBD-CYC8 efflux-inhibited sensitized strain, primary screen (AID 1298);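 further: 0% = DMSO untreated cells without growth and 100% = 10 µM 1-NA-PP1 full growth; higher means more yeast growth rescued from 5-FOA killing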; conditions: S. cerevisiae cbk1-as DSE1-URA3 strain, 5-FOA growth OD615, 2 d; at 50 µM; stronger effect = higher value
readout-label: RAM network inhibition (%)
Just the number in %, nothing appended.

molecule	unit-abbreviation	RAM network inhibition
Cc1cccc(-n2nc3c(c2NC(=O)CCC2CCCCC2)CS(=O)C3)c1C (stereo not given)	%	1.36
COc1ccccc1S(=O)(=O)Cc1ccc(C(=O)N2CCN(c3ccc(C)cc3)C(C)C2)o1 (stereo not given)	%	5.28
COc1ccc(C2C(C(=O)Nc3ccc(F)cc3)=C(C)Nc3nc(CCCO)nn32)cc1 (stereo not given)	%	0.37
Cn1c(=O)c2cc(S(=O)(=O)NC(Cc3ccccc3)C(=O)NCc3ccco3)ccc2n(C)c1=O (stereo not given)	%	4.39
Cc1cccc(-n2ncc3c(N(CCO)CCO)ncnc32)c1	%	-0.31

What the record says about `Cn1ccnc1SCC(=O)Nc1ccc2ccccc2c1` : RAM network inhibition is 3.49

Form: molecule = `Cc1cccc(-n2ncc3c(NCCCO)ncnc32)c1` ; RAM network inhibition = -0.67

Form: molecule = `O=C(Cn1c(=O)oc2cc(S(=O)(=O)N3CCCCCC3)ccc21)NC1CCCCCCC1` ; RAM network inhibition = 10.5

What the record says about `COc1ccccc1NC1=C(C)C(=O)CC1` : RAM network inhibition is -0.26

Reported RAM network inhibition ( CCC(C)OC(=O)C1=C(C)NC2=C(C(=O)C(C(=O)OC)C(C)C2)C1c1ccc(N(C)C)cc1 (stereo not given) ) = 8.17
